Tested On: 5-hydroxytryptamine receptor 1A (Rattus norvegicus, UniProt P19327)
Sequence (P19327 whole entry): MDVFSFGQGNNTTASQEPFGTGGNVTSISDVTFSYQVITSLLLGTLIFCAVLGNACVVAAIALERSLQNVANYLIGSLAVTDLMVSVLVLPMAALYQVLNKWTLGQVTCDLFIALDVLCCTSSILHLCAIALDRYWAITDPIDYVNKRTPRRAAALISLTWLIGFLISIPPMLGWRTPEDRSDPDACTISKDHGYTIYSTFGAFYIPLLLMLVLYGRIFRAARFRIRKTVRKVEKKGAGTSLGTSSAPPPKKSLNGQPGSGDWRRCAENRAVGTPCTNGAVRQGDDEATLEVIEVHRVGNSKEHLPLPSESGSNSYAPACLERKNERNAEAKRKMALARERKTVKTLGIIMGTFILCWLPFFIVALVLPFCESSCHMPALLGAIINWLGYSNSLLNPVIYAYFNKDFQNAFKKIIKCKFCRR
Procedure Summary: Compound was evaluated for its binding affinity against 5-hydroxytryptamine 1A receptor from rat cerebral cortex
Type: tissue-based
pKi: −log10 of the molar value.
Endpoint Name: pKi

[I] CC(=O)N(C)C(=O)c1cccc(CN2CCN(c3ccccc3OC(C)C)CC2)c1
[II] O=C(c1cccc(CN2CCN(C3COc4ccccc4O3)CC2)c1)N1CCCCC1 (stereo not given)
[III] CCOc1ccccc1N1CCN(Cc2cccc(C(=O)N3CCCCCC3)c2)CC1
[IV] O=C(c1cccc(CN2CCN(c3ccc4ccoc4c3)CC2)c1)N1CCCCC1
**Query** Arrange these 4 compounds in increasing order of pKi. Kindly provide the labels arranged according to the requested ordering.
**Result** I, III, II, IV

###

Test system: Rattus norvegicus
Procedure Summary: Percent catalepsy in male Spargue-Dawley rat at pretreatment time 60 mins and when administered ip at dose 50 mg/kg
Assay type: functional
Experimental Conditions: route intraperitoneal
The following compounds are listed with their measured Catalepsy values.
Report only the number, with the unit % understood.

Sample answers from the record:
>>> meas_value("CC(C)Oc1cc(F)ccc1N1CCN(Cc2cccc(C(=O)N3CCCCC3)c2)CC1")
45.2
>>> meas_value("CCN(CC)C(=O)c1cccc(CN2CCN(c3ccccc3OC(C)C)CC2)c1")
76.9
>>> meas_value("CC(C)Oc1ccccc1N1CCN(Cc2cccc(C(=O)N3CCCCCC3)c2)CC1")
27.8
>>> meas_value("O=C(c1cccc(CN2CCN(C3COc4ccccc4O3)CC2)c1)N1CCCCC1 (stereo not drawn)")
29
>>> meas_value("O=C(c1cccc(CN2CCN(c3nsc4ccccc34)CC2)c1)N1CCCCC1")
74

Looking up O=C(c1cccc(CN2CCN(c3cccc(Cl)c3)CC2)c1)N1CCCCC1 , I found its Catalepsy recorded as 21.8

Looking up CC(C)Oc1ccccc1N1CCN(Cc2cccc(C(=O)N3CCCCCCC3)c2)CC1 , I found its Catalepsy recorded as 34.4

Looking up CC(C)Oc1ccccc1N1CCN(Cc2cccc(C(=O)N(C)C3CCCCC3)c2)CC1 , I found its Catalepsy recorded as 0

###

Tested On: Adrenergic receptor alpha-1 (Rattus norvegicus, UniProt P15823+P23944+P43140)
Procedure Summary: Binding affinity against Alpha-1 adrenergic receptor from rat cerebral cortex
Format: tissue-based
Endpoint Name: Ki (nM)

Sample answers from the record:
>>> meas_value("O=C(c1cccc(CN2CCN(c3ccccc3)CC2)c1)N1CCCCC1")
44
>>> meas_value("O=C(c1cccc(CN2CCN(c3cccc(C(F)(F)F)c3)CC2)c1)N1CCCCC1")
562
>>> meas_value("O=C(c1cccc(CN2CCN(c3ccc(Cl)cc3)CC2)c1)N1CCCCC1")
486
>>> meas_value("COc1ccccc1N1CCN(Cc2cccc(C(=O)N3CCCCCC3)c2)CC1")
4.7
>>> meas_value("CC(C)Oc1cc(F)ccc1N1CCN(Cc2cccc(C(=O)N3CCCCC3)c2)CC1")
6

[1] O=C(c1cccc(CN2CCN(c3cccc(Cl)c3)CC2)c1)N1CCCCC1
[2] O=C(c1cccc(CN2CCN(c3ccccc3F)CC2)c1)N1CCCCC1
**Query** Which has the smaller recorded Ki, 1 or 2 ? Indicate which entry you chose by stating its label.
**Result** 1

[1] CC(C)Oc1ccccc1N1CCN(Cc2cccc(C(N)=O)c2)CC1
[2] CCN(CC)C(=O)c1cccc(CN2CCN(c3ccccc3OC(C)C)CC2)c1
**Query** Lab note: check whether 1 or 2 shows the higher recorded Ki. Indicate which entry you chose by stating its label.
**Result** 1

[A] CCCc1ccccc1N1CCN(Cc2cccc(C(=O)N3CCCCC3)c2)CC1
[B] CC(C)Oc1ccccc1N1CCN(C(C)c2cccc(C(=O)N3CCCCC3)c2)CC1 (configuration not stated)
**Query** Lab note: check whether A or B shows the higher recorded Ki. Indicate which entry you chose by stating its label.
**Result** B
(B: 87 nM, A: 16 nM)
